- experimentalTarget: T1, human GIP receptor (human, UniProt P48546 22-466)
- T1 construct: whole, on cells; also called hGIPR; human glucose-dependent insulinotropic polypeptide receptor
- T1 sequence (looked up): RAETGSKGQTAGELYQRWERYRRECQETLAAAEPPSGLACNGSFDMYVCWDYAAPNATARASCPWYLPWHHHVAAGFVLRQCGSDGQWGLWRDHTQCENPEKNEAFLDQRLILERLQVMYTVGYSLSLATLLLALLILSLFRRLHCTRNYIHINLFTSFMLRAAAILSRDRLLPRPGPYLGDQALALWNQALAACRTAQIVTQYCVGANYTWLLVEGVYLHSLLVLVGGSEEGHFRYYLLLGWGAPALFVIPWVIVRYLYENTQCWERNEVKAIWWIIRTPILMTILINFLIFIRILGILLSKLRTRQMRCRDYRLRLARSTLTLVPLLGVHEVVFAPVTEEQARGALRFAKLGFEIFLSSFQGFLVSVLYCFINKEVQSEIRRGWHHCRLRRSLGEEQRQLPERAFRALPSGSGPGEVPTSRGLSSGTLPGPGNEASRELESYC
- assayText: SPA competition vs [125I]-GIP, hGIPR membranes
- Method: The binding buffer contains 25 mM HEPES, pH 7.4, 2.5 mM CaCl₂, 1 mM MgCl₂, 0.1% (w/v) bacitracin, 0.003% (w/v) TWEEN®-20, and Roche Complete™ Protease Inhibitors without EDTA. […] Plates are sealed and mixed on a plate shaker (setting 6) for 1 minute and read with a PerkinElmer Trilux MicroBeta® scintillation counter after 2.5 to 12 hours of incubation/settling time at room temperature. […]
measuredMetric: pKi
Convention used: pKi is expressed as -log10 of the molar concentration.

Prompt line: Reported pKi, binder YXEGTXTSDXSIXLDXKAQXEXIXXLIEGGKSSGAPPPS (Aib2, αMeF(2F)6, 4Pal10, αMeL13, Orn16, K17(Z1), Aib20, 3,5FPhe22, D-Glu24, αMeY25, K31(Z1), C-term NH2; Z1=AEEA2-(γ-Glu)-CO-(CH2)12-CO2H) : ____
Response line: 9.92

Prompt line: Queued: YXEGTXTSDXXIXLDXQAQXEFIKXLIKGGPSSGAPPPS (Aib2, αMeF(2F)6, 4Pal10, Aib11, αMeL13, Orn16, Aib20, K24(Z1), αMeY25, K28(Z1), C-term NH2; Z1=AEEA3-(γ-Glu)-CO-(CH2)12-CO2H)
Response line: 10.28

Prompt line: Queued: YXEGTXTSDXXIXLDXQAQXKFIXXLIKGGPSSGAPPPS (Aib2, αMeF(2F)6, 4Pal10, Aib11, αMeL13, Orn16, Aib20, K21(Z1), D-Glu24, αMeY25, K28(Z1), C-term NH2; Z1=AEEA2-(γ-Glu)-CO-(CH2)12-CO2H)
Response line: 10.19

Prompt line: Queued: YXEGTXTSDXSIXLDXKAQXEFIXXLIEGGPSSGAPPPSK (Aib2, αMeF(2F)6, 4Pal10, αMeL13, Orn16, K17(Z1), Aib20, D-Glu24, αMeY25, K40(Z1), C-term NH2; Z1=AEEA2-(γ-Glu)-CO-(CH2)12-CO2H)
Response line: 10.09

Prompt line: Queued: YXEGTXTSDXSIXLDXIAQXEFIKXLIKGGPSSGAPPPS (Aib2, αMeF(2F)6, 4Pal10, αMeL13, Orn16, Aib20, K24(Z1), αMeY25, K28(Z1), C-term NH2; Z1=AEEA2-(γ-Glu)-CO-(CH2)12-CO2H)
Response line: 9.92

Prompt line: Queued: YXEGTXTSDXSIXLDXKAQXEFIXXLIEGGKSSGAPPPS (Aib2, αMeF(2F)6, 4Pal10, αMeL13, Orn16, K17(Z1), Aib20, D-Glu24, αMeY25, K31(Z1), C-term NH2; Z1=AEEA3-(γ-Glu)-CO-(CH2)14-CH3)
Response line: 10.51
